Reported pEC50 by item:
Molecular target: T1, recombinant human domain 1-3His6 of the cation-independent mannose-6-phosphate receptor (human, UniProt P11717 41-467)
T1 construct: Biotinylated (NHS-PEG4-biotin) for BLI; Glycosylated; also called hDom1-3His6; hCI-M6PRD1-D3
Assay: ELISA on coated human CI-M6PRD1-D3, non-linear fit of the curves of FIG 36A
Experimental: FIGS. 36A-C. […] (FIG. 36A) ELISA assay in which each construct was serially diluted and incubated on human CI-M6PR_D1-D3 and the detected absorbance (Abs) at 450 nm was set out in function of concentration. […] Graphs created in Graphpad Prism 9.0.0.
pEC50: −log10 of the molar value.
Property: pEC50

>>> number("anti-CI-M6PR VHH8 (VHH, His6-tagged (Pichia pastoris)) VHH: QVQLQESGGGLVQAGGSLRLSCEASGRTFNTYNWGWFRQAPGKEREFVAAIRWSSSKTSYADSVKGRFTISRDNAKNTIYLQMNSLKPEDTAVYYCAASIVDFTTNPSHFGSWGQGTQVTVSS")
9.80
>>> number("anti-CI-M6PR VHH5 (VHH, His6-tagged; made in Pichia pastoris, later also in E. coli WK6) VHH: QVQLQESGGGLVQAGGSLKLSCAAAGRTFSRLAMGWFRQAPGKEREFVAAISENGDSIHYSDSVKGRFAVSRDNAKNTVYLQMNSLKPEDTAIYYCAADRAAYYCSGSGCYPSRAPAAASYDYWGQGTQVTVSS")
7.19
>>> number("anti-CI-M6PR VHH7 (VHH, His6-tagged (Pichia pastoris)) VHH: QVQLQESGGGLVQPGGSLRLSCAASGIIFSDNRMDWYRQAPGKQREWVATLASYGWKTYADSVKGRFTISRDNTKNTVYLRMNSLKPEDTAVYYCKASSPVLNDIWGQGTQVTVSS")
9.35
>>> number("anti-CI-M6PR VHH1 (VHH, His6-tagged; made in Pichia pastoris, later also in E. coli WK6) VHH: QVQLQESGGGLVQPGGSLRLSCVASGFTFDRYWMNWLRQIPGKEIEWVSTINTGGTGTYYDDSVKGRFSISRDDAKNTLYLTMNSLKTEDTAVYYCARGATYYRGNSAIRGQGTQVTVSS")
7.72
